Please provide measured TGI for the entries that follow.
- System: NCI-H522 lung
- Protocol text: NCI tumour cell line growth inhibition, 48 h

Prompt: Sample `O=C(/C=C/N1CCN(c2cccc(C(F)(F)F)c2)CC1)c1ccc(Cl)cc1Cl` — what was its TGI?
Completion: > 100 µM

Prompt: Endpoint output: TGI of `Oc1c2cccc1Cc1cccc3c1OCCOCCOCCOCCOc1c(cccc1Cc1cccc(c1O)C3)C2` . Value?
Completion: > 100 µM

Prompt: I'd like to know its TGI. The compound in question is `CC(CC(=O)O)(CC(=O)O)C(=O)O`
Completion: > 100 µM

Prompt: Query (compound): `COc1ccc2c(c1O)[C@@]13C=C(O)C(=O)C=C1[C@@H](C2)N(C)CC3` ; field requested: TGI
Completion: > 100 µM

Prompt: If you can, please state the reported TGI value of CCOC(=O)/C=C1\Nc2ccccc2C(c2ccccc2)=NC1OC(C)=O (stereo not given) .
Completion: > 100 µM

Prompt: Could you share which TGI value was measured for `Cc1ccc(NCSc2ccc(Cl)cc2)cc1` ?
Completion: > 100 µM

Prompt: Entry under review: `Clc1ccc2c(Cl)ncnc2c1` . Reported TGI?
Completion: > 100 µM

Prompt: Which TGI reading was recorded for the compound `COC(=O)/C(C#N)=C1\N=NNN1CCCN1CCOCC1` ?
Completion: > 100 µM

Prompt: Give the measured TGI of `O=C1c2cccnc2C(=O)c2c1c(C(=O)OCCCN1CCOCC1)c1ccccn21` .
Completion: < 0.0127 µM

Prompt: Look up TGI: `O=C1c2ccccc2S(=O)(=O)c2ccccc21`
Completion: > 100 µM

Prompt: Please give the measured TGI for this compound: `S=C(Nc1ccccc1)Nc1[nH]c(=S)sc1-c1nc2ccccc2[nH]1`
Completion: > 100 µM

Prompt: Look up TGI for this compound: CCOC(=O)/C=C1\Nc2ccccc2C12CCc1c([nH]c3ccccc13)C2C(=O)OCC (stereo not given)
Completion: > 100 µM

Prompt: So what does the record say about TGI for CCCCCCCCCCCCCCCCOCC(CC(F)(F)P(=O)(O)O)OC(C)=O (stereo not given) ?
Completion: > 50 µM

Prompt: Give its TGI value. Item: N#CC1c2ccccc2-c2ccccc2N1C(=O)c1ccccc1 (stereo not given)
Completion: 1.48 µM

Prompt: Please report the recorded TGI for `O=C(N[C@@H]1CCCc2ccccc21)[C@H](CCC(=O)N1CCN(C2CCCCC2)CC1)N1C(=O)[C@@H](N2C(=O)OC[C@@H]2c2ccccc2)[C@H]1/C=C/c1ccccc1` .
Completion: 4.11 µM

Prompt: So what's the measured TGI for this one? `NC1=NS(=O)(=O)N=C(N)C1=Cc1ccc([N+](=O)[O-])o1`
Completion: 31.5 µM

Prompt: Returns the measured TGI for the input compound. Input: COc1cc2c3c(c1OC)-c1ccccc1C(C(OC(C)=O)c1ccccc1)C3N(C)CC2 (stereo not given)
Completion: > 100 µM

Prompt: Data request, read-out TGI, for `O=C1CCC2(CCC(=O)NC2=O)C(=O)N1`
Completion: > 100 µM

Prompt: What measured TGI goes with `Brc1ccc2c(c1)C1(c3cc(Br)ccc3-2)c2cc(Br)ccc2-c2ccc(Br)cc21` ?
Completion: > 100 µM

Prompt: Fill in: TGI of `COc1ccccc1C(=O)c1c(N2CCCCC2)c(=O)c1=O` is ___
Completion: > 100 µM

Prompt: Consider the compound shown here: `COc1cc[nH]c1/C=C1\C(=O)Nc2ccc(F)c(C#CC3(O)CCOCC3)c21` What is its recorded TGI?
Completion: 4.53 µM

Prompt: # get_value(readout='TGI', item= `O=C(Cn1c2ccc(Br)cc2c2nc3ccccc3nc21)NC1CCCCC1` )
Completion: > 100 µM

Prompt: # get_value(readout='TGI', item= `COc1ccc(C[C@H]2C[C@@H](O)[C@@H](C)C/C=C/Cc3cccc(O)c3C(=O)O2)cn1` )
Completion: 49.1 µM

Prompt: Can you look up the measured TGI of `O=C1OC(c2ccc(O)cc2)(c2ccc(O)cc2)c2cccc3cccc1c23` for me?
Completion: 33.5 µM

Prompt: Fill blank: measured TGI of the compound `COc1ccc(/C=N/Nc2[nH]c(=S)nc3[nH]ncc23)cc1` is ____.
Completion: 79.9 µM

----------
- Tested on: HL-60(TB) leukemia
- Protocol text: NCI tumour cell line growth inhibition, 48 h
Field: TGI. Provide a value for each of the molecules that follow.
# value in µM; strip the unit string

Prompt: Lab note: need TGI with HL-60(TB) leukemia for entry `C#CC(C)(C)Oc1cc(OC)c2c(=O)c3ccccc3n(C)c2c1` , please look it up.
Completion: 28.7

Prompt: Lab note: need TGI for `CSc1c(C(C)=O)c(O)n(-c2ccc(Cl)cc2)c(=O)c1C#N` on HL-60(TB) leukemia, anyone have it?
Completion: 46.9

----------
Provide the recorded TGI for the entries that follow.
- Tested on: SF-539 CNS
- Protocol text: NCI tumour cell line growth inhibition, 48 h

Prompt: Notebook entry, SF-539 CNS assay: TGI of `CCOC(=O)c1cnc2[nH]c(=O)c3ccccc3n2c1=O` = ?
Completion: > 100 µM

Prompt: Return TGI measured with SF-539 CNS given this compound: CC1Cc2c(N(C)C)ncnc2N(C)c2ccc(Cl)cc21 (stereo unspecified)
Completion: 12.2 µM

Prompt: What value of TGI on SF-539 CNS does `COC(=O)c1cc(Nc2ccc(O)c3c2C(=O)c2c([N+](=O)[O-])ccc(O)c2C3=O)cc(C(=O)OC)c1` have?
Completion: > 100 µM

Prompt: Field: TGI (SF-539 CNS). Entry: `N#Cc1c2c(c(N=[N+]=[N-])n3c1nc1ccccc13)CCCC2`
Completion: 3.66 µM

Prompt: Short answer please: TGI, SF-539 CNS, entry CC(CS(=O)(=O)Cc1ccccc1)C(N)=O (stereo unspecified)
Completion: > 100 µM

Prompt: Recall the recorded TGI for CCCCc1ccc2[n+](c1)C(C(=O)OCC)=PC2 (stereo unspecified) with SF-539 CNS and state it.
Completion: > 100 µM

Prompt: Lab note: need TGI for `O=C1/C(=C/c2ccccc2S)N=C(c2ccccc2)N1c1ccc2c(c1)Sc1cc(N3C(=O)/C(=C/c4ccccc4S)N=C3c3ccccc3)ccc1N2` on SF-539 CNS, anyone have it?
Completion: 24.1 µM

Prompt: Could you share what TGI was measured for `O=S1(=O)NNC(=NCc2ccc(F)cc2)c2ccccc21` , tested on SF-539 CNS?
Completion: > 100 µM

Prompt: // fetch SF-539 CNS TGI for CC1=NN(C(=O)CC(=O)Nc2cccc(Cl)c2)C(=O)C1N=Nc1ccc(S(N)(=O)=O)cc1 (stereo unspecified)
Completion: > 100 µM

Prompt: What measured TGI is associated with `O=C(OCc1ccccc1CN1CCOCC1)c1ccc(Br)cc1` on SF-539 CNS?
Completion: > 100 µM

Prompt: # value lookup — system SF-539 CNS, readout TGI, item `COC(=O)[C@H](Cc1ccccc1)NC(=O)c1csc([C@@H](C[C@H](C(C)C)N(C)C(=O)[C@@H](NC(=O)[C@H]2CCCCN2C)C2CC2)OC(C)=O)n1`
Completion: 0.194 µM

----------
- Tested on: UACC-62 melanoma
- Protocol text: NCI tumour cell line growth inhibition, 48 h
Measured metric: TGI

Prompt: What value of TGI on UACC-62 melanoma does CC1(CC(=O)O)OC2CCCCCC2O1 (centres undefined) (tested in a mixture with another compound) have?
Completion: > 100 µM

Prompt: API: value(readout=TGI, system=UACC-62 melanoma) for record `CC[C@]12C=CCN3CC[C@]4(C(=C(C(=O)OC)C1)Nc1cc(O)ccc14)[C@@H]32`
Completion: 22.3 µM

Prompt: Identify the measured TGI of `COc1ccccc1C(=O)c1cnc(NC2CCN(S(C)(=O)=O)CC2)nc1N` for UACC-62 melanoma.
Completion: > 25 µM

Prompt: Form field: TGI recorded for `O=c1c(Cc2ccc(Cl)cc2)nnc2sc(-c3ccc([N+](=O)[O-])cc3)nn12` with UACC-62 melanoma (enter value)
Completion: 34 µM

Prompt: Record lookup: for UACC-62 melanoma, what TGI belongs to `Clc1ccc2c(Cl)ncnc2c1` ?
Completion: > 100 µM

Prompt: Any idea what TGI came out for `CC(=O)N(C(C)=O)n1c(Cc2ccc(Cl)cc2)nn(C(C)=O)c1=O` on UACC-62 melanoma?
Completion: > 100 µM

Prompt: What is its TGI for UACC-62 melanoma? Entry: C/C(=N\N(C)C)C(CN(C)C)C(c1ccccc1)c1c(O)c2ccccc2oc1=O (centres undefined)
Completion: > 100 µM

Prompt: Fill in the recorded TGI for this compound, with UACC-62 melanoma as test system: `C[C@@H](NC(=O)Cc1cc(F)cc(F)c1)C(=O)N[C@@]1(C)N=C(c2ccccc2)c2ccccc2N(C)C1=O`
Completion: > 89 µM

Prompt: Find the measured TGI: item OC(CC(c1ccccc1)c1ccc(Cl)cc1)c1ccc(Cl)cc1 (centres undefined) , target or system UACC-62 melanoma.
Completion: > 100 µM
